test: transmission densities of image-receiving components before and after bleaching with aqueous 1 N KOH; type: physicochemical; conditions: 22 mgs./ft.^2; 1 N KOH, after 15 to 60 seconds
QUANTITY: Transmission density After Bleaching B

Q: Recorded Transmission density After Bleaching B for COC1=CC(=C(c2ccc(N3CCOCC3)cc2)c2ccccc2S(=O)(=O)N(C)C(=O)OCCS(C)(=O)=O)C=C(OC)C1=O , please?
Result: .00

Q: Thanks! And CC1=CC(=C(c2cc(C)c(O)c(C)c2)c2ccccc2S(=O)(=O)N(C)C(=O)OCCS(C)(=O)=O)C=C(C)C1=O ?
Result: .00

Q: Thanks! And COC1=CC(=C(c2cc3c4c(c2)CCCN4CCC3)c2ccccc2S(=O)(=O)N(C)C(=O)OCCS(C)(=O)=O)C=C(OC)C1=O ?
Result: .00

Q: Thanks! And COCC(=O)OCc1ccccc1C(=C1C=C(OC)C(=O)C(OC)=C1)c1cc(OC)c(O)c(OC)c1 ?
Result: .01

Just for reference, patent US4304833A is where these values come from.
